Test system: SW620
procedure summary: MTT cell viability assay
Assay type: cell-based
cond: Homo sapiens, SW-620; SW620, 24 h; read-out: IC50
Measured IC50, listed per entry.

| compound | IC50 |
| --- | --- |
| COc1cc(/C=C/C(=O)CC(=O)/C=C/c2ccc(O)c(OC)c2)ccc1O [curcumin] | > 30 µM |

Shift focus to the following entry.
What value of measured IC50 is listed for COc1cccc(/C=C2\CCC/C(=C\c3cccc(OC)c3OC)C2=O)c1OC [DMCH] ? > 30 µM

----------
Test system: SW620
procedure summary: MTT cell viability assay
Format: cell-based
cond: Homo sapiens, SW-620; SW620, 48 h; read-out: IC50
measured attribute: IC50 (µM)
Report the figure in µM without appending any unit label.

| item smiles | measured attribute | u | value measured |
| --- | --- | --- | --- |
| COc1cc(/C=C/C(=O)CC(=O)/C=C/c2ccc(O)c(OC)c2)ccc1O | IC50 | µM | 18.6 |

The record that follows has no IC50 shown yet.
Can you share its IC50? I mean this compound: COc1cccc(/C=C2\CCC/C(=C\c3cccc(OC)c3OC)C2=O)c1OC 7.5

Value source: paper PMC7956430
